Tested on: Candida parapsilosis
run_description: Antifungal activity against azole-susceptible Candida parapsilosis ATCC 90018 assessed as reduction in fungal growth incubated for 48 hrs by broth microdilution method
Assay type: functional
protocol_conditions: Lodderomyces parapsilosis, ATCC 90018, 48 h
Listed here are compounds together with their documented MIC.
Could you write the number and then its unit?

Cl.O=C(O/N=C(\Cn1ccnc1)c1ccc(Cl)cc1Cl)c1ccc(Cl)cc1
32 µg/mL
OC(Cn1cncn1)(Cn1cncn1)c1ccc(F)cc1F
0.5 µg/mL
O=C(/C=C/c1ccccc1)O/N=C(\Cn1ccnc1)c1ccc(Cl)cc1Cl
2 µg/mL
Cl.O=C(CCC(=O)c1ccccc1)OC(Cn1ccnc1)c1ccc(Cl)cc1Cl (racemic)
8 µg/mL

Query block: What value of MIC has been recorded for this entry: CC(C)(C)c1ccc(C(=O)O/N=C(\Cn2ccnc2)c2ccc(Cl)cc2Cl)cc1
Result block: 4 µg/mL

Query block: What value of MIC has been recorded for this entry: Cl.N#Cc1ccc(C(=O)OC(Cn2ccnc2)c2ccc(Cl)cc2Cl)cc1 (racemic)
Result block: 4 µg/mL

Query block: What value of MIC has been recorded for this entry: CC(C)c1ccc(C(=O)O/N=C(\Cn2ccnc2)c2ccc(Cl)cc2Cl)cc1.Cl
Result block: 16 µg/mL

====

Listed here are compounds together with their documented MIC.
Tested on: Candida parapsilosis
run_description: Antifungal activity against azole-susceptible Candida parapsilosis ATCC 90018 assessed as reduction in fungal growth incubated for 48 hrs by broth microdilution method
Assay type: functional
protocol_conditions: Lodderomyces parapsilosis, ATCC 90018, 48 h
Reply numerically in µg/mL, unit not repeated.

Below, each entry is followed by its recorded MIC result.
Cl.O=C(CCCc1ccccc1)OC(Cn1ccnc1)c1ccc(Cl)cc1Cl (racemic)
2
O=C(O/N=C(\Cn1ccnc1)c1ccc(Cl)cc1Cl)c1ccc(-c2ccccc2)cc1
1
OC(Cn1ccnc1)c1ccc(Cl)cc1Cl (stereo unspecified)
4
N#Cc1ccc(C(=O)O/N=C(\Cn2ccnc2)c2ccc(Cl)cc2Cl)cc1
64
CCc1ccc(C(=O)O/N=C(\Cn2ccnc2)c2ccc(Cl)cc2Cl)cc1.Cl
128

Query block: What value of MIC has been recorded for this entry: O=C(Cn1ccnc1)c1ccc(Cl)cc1Cl
Result block: 32

Query block: What value of MIC has been recorded for this entry: Cl.O=C(OC(Cn1ccnc1)c1ccc(Cl)cc1Cl)c1ccc(N2CCOCC2)cc1 (racemic)
Result block: 32

Query block: What value of MIC has been recorded for this entry: O=C(O/N=C(\Cn1ccnc1)c1ccc(Cl)cc1Cl)C1CCCCC1
Result block: 64

Query block: What value of MIC has been recorded for this entry: Cl.O=C(OC(Cn1ccnc1)c1ccc(Cl)cc1Cl)C1CCCC1 (racemic)
Result block: 2

Query block: What value of MIC has been recorded for this entry: CCc1ccc(C(=O)OC(Cn2ccnc2)c2ccc(Cl)cc2Cl)cc1.Cl (racemic)
Result block: 256

Query block: What value of MIC has been recorded for this entry: CC(C)(C)OC(=O)NCCCC(=O)OC(Cn1ccnc1)c1ccc(Cl)cc1Cl.Cl (racemic)
Result block: 16
